# assayOverview: RAM pathway blockade in budding yeast – dse1pr::URA3 reporter, 5-FOA selection, pilot screen (AID 869);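 also: 0% = DMSO wells with no growth and 100% = 10 µM 1-NA-PP1 with full growth; RAM network block rescues cells from 5-FOA so hits raise OD615 growth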
# experimentalConditions: S. cerevisiae dse1pr::URA3 5-FOA growth, OD615, 2 d; at 10 µM; active compounds read high; strain carries analog-sensitive mutant Cbk1 kinase
propertyMeasured: inhibition (%)
Value expressed in %; do not type the unit.

>  <molecule>
COc1ccc(S(=O)(=O)N2CCN(C)CC2)cc1C

>  <inhibition [%]>
3.29

$$$$
>  <molecule>
CCOc1ccc(N(CC(=O)NC2CCCC2)S(=O)(=O)c2c(C)noc2C)cc1

>  <inhibition [%]>
3.61

$$$$
>  <molecule>
Cc1cccc(N(CC(=O)N2CCCC2)S(=O)(=O)c2ccccc2)c1C

>  <inhibition [%]>
2.05

$$$$
>  <molecule>
O=C(c1cnc2n(c1=O)CCS2)N(C1CCCCC1)C1CCCCC1

>  <inhibition [%]>
1.71

$$$$

Request: What value of measured inhibition is listed for Cc1ccc(S(=O)(=O)N2CCCC2C(=O)Nc2nccs2)cc1 (configuration not stated) ?
Result: -0.275

Request: For the molecule shown here, `COc1ccc(NC(=O)c2cc(C3CC3)on2)c(OC)c1` , give the reported inhibition.
Result: -0.14

Request: What value of measured inhibition is listed for COc1ccc(C2CC(c3cccc(Cl)c3)n3nc(N)nc3N2)cc1 (configuration not stated) ?
Result: 1.37

Request: Which inhibition is reported for this molecule? `COc1cc(Cl)c(S(=O)(=O)NCc2cccnc2)cc1Cl`
Result: 0.745

Request: Sample CC1CN(S(=O)(=O)c2ccc(C(=O)Nc3nnc(-c4ccc5c(c4)CCCC5)o3)cc2)CC(C)O1 (configuration not stated) — what was its inhibition?
Result: 1.67

Request: inhibition for O=C(CC1NC(=O)NC1=O)NC1(C(=O)NC2CCCCC2)CCCCC1 (configuration not stated) ?
Result: 1.18

Request: Please report the recorded inhibition for `CCN(C(=O)c1cc(Cl)ccc1OC)c1ccccc1` .
Result: 2.85

Request: So what does the record say about inhibition for `CCN(CCCNS(=O)(=O)c1ccc2c(c1)oc(=O)n2C)c1cccc(C)c1` ?
Result: 0.695

Request: Using the record for `COc1ccc(S(=O)(=O)Cc2ccc(C(=O)NCCc3ccc(S(N)(=O)=O)cc3)o2)cc1` , report its inhibition.
Result: 0.71
